- Test system: KRAS patient-derived spheroids with HUVEC/MSC, viability
- Assay: Anticancer human tumor 323965-272-R-J2-PDC patient-derived pancreatic carcinoma cell line growth inhibition [KRAS2]
- Reported conditions: second compound 1 µM; first compound 0.1 µM; active compounds read low

- Compound: "CCNC(=O)CC1N=C(c2ccc(Cl)cc2)c2cc(OC)ccc2-n2c(C)nnc21 (stereo unspecified) + CC1OCC2(CCN(c3cnc(Sc4ccnc(N)c4Cl)c(N)n3)CC2)C1N"
  Display unit: "%"
  viability, T/C: 35.5
- Compound: "O=C(c1cc(Cc2n[nH]c(=O)c3ccccc23)ccc1F)N1CCN(C(=O)C2CC2)CC1 + CC1OCC2(CCN(c3cnc(Sc4ccnc(N)c4Cl)c(N)n3)CC2)C1N"
  Display unit: "%"
  viability, T/C: 106
- Compound: "CC1OCC2(CCN(c3cnc(Sc4ccnc(N)c4Cl)c(N)n3)CC2)C1N (stereo unspecified) + CNCc1ccccc1-c1csc(C(C)Nc2nc(C)nc3cc(OC)c(OC)cc23)c1"
  Display unit: "%"
  viability, T/C: 71.9
- Compound: "COC(=O)c1ccc2c(C(=Nc3ccc(N(C)C(=O)CN4CCN(C)CC4)cc3)c3ccccc3)c(O)[nH]c2c1 + CNCc1ccccc1-c1csc(C(C)Nc2nc(C)nc3cc(OC)c(OC)cc23)c1"
  Display unit: "%"
  viability, T/C: 90.8
- Compound: "CCNC(=O)CC1N=C(c2ccc(Cl)cc2)c2cc(OC)ccc2-n2c(C)nnc21 (stereo unspecified) + C=CC(=O)N1CCN(c2nc(=O)n(-c3c(C)ccnc3C(C)C)c3nc(-c4c(O)cccc4F)c(F)cc23)C(C)C1"
  Display unit: "%"
  viability, T/C: 49.2
- Compound: "CCNC(=O)CC1N=C(c2ccc(Cl)cc2)c2cc(OC)ccc2-n2c(C)nnc21 (stereo unspecified) + CNCc1ccccc1-c1csc(C(C)Nc2nc(C)nc3cc(OC)c(OC)cc23)c1"
  Display unit: "%"
  viability, T/C: 80.2

---

- Tested on: KRAS patient-derived spheroids with HUVEC/MSC, viability
- Assay: Anticancer human tumor 323965-272-R-J2-PDC cell line growth inhibition [KRAS2];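 further: spheroids exposed to agents for 7 days; 100% = DMSO vehicle control viability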
- Reported conditions: second compound 1 µM; first compound 3.16 µM; active compounds read low
Decide using viability, T/C alone. Strictly below 50%: yes (1). Equal to or above 50%: no (0).

- Compound: "COc1cc2nccc(Oc3ccc(NC(=O)C4(C(=O)Nc5ccc(F)cc5)CC4)cc3)c2cc1OC + CC1OCC2(CCN(c3cnc(Sc4ccnc(N)c4Cl)c(N)n3)CC2)C1N"
  Label class: "no (0)"
- Compound: "Cn1nccc1Nc1nccc(-c2cc3c(s2)C(C)(C)N(CCN2CCOCC2)C3=O)n1 + CNCc1ccccc1-c1csc(C(C)Nc2nc(C)nc3cc(OC)c(OC)cc23)c1"
  Label class: "yes (1)"
- Compound: "CC(C)NCC(C(=O)N1CCN(c2ncnc3c2C(C)CC3O)CC1)c1ccc(Cl)cc1 (stereo not given) + C=CC(=O)N1CCN(c2nc(=O)n(-c3c(C)ccnc3C(C)C)c3nc(-c4c(O)cccc4F)c(F)cc23)C(C)C1"
  Label class: "yes (1)"
- Compound: "Cn1nccc1Nc1nccc(-c2cc3c(s2)C(C)(C)N(CCN2CCOCC2)C3=O)n1 + C=CC(=O)N1CCN(c2nc(=O)n(-c3c(C)ccnc3C(C)C)c3nc(-c4c(O)cccc4F)c(F)cc23)C(C)C1"
  Label class: "yes (1)"
